Target: recombinant human ULK1 protein (1-649) (Homo sapiens, UniProt O75385)
Construct: recombinant human ULK1 protein (1-649, SignalChem #U01-11G); purchased SignalChem U01-11G
Sequence (O75385 1-649): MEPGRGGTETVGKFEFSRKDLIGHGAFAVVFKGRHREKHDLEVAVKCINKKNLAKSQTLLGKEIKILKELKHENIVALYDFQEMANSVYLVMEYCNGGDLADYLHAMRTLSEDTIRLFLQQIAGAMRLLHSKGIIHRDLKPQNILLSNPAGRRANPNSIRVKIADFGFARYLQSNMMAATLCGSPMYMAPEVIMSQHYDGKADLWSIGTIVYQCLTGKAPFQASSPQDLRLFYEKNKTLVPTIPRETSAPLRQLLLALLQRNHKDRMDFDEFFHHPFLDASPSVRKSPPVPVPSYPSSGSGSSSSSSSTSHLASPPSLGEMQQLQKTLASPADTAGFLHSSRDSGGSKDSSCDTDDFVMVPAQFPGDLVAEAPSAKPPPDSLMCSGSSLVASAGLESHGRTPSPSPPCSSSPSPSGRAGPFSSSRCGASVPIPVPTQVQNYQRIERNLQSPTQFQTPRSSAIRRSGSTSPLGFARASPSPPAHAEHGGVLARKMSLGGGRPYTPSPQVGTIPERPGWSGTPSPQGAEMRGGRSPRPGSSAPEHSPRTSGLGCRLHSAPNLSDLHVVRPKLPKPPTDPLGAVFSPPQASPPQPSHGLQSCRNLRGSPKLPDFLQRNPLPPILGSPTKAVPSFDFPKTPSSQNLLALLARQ
Assay: ULK1 inhibition assay (ADP Glo)
Type: biochemical
Details: Table 1; 25 uM ATP, MBP substrate, one hour
pIC50: −log10 of the molar value.
QUANTITY MEASURED: pIC50

>>> observed_result("NS(=O)(=O)N1CCc2ccc(Nc3ncc(C(F)(F)F)c(NC4CC4)n3)cc2C1")
"8.00 to 9.00"
>>> observed_result("CNC(=O)c1ccccc1Nc1nc(Nc2ccc3c(c2)CCN(C(=O)[C@@H](N)CO)C3)ncc1Br (racemic)")
"< 8.00"
>>> observed_result("CNC(=S)Nc1cnc(Nc2ccc3c(c2)CCNC3)nc1NC1CC1")
"< 8.00"
>>> observed_result("CNC(=O)c1ccccc1Nc1nc(Nc2ccc3c(c2)CCNC3)ncc1C(F)(F)F")
"8.00 to 9.00"
>>> observed_result("CNC(=O)c1ccccc1Nc1nc(Nc2ccc3c(c2)CN(CC(C)O)CC3)ncc1Br (stereo not shown)")
"< 8.00"
>>> observed_result("FC(F)(F)c1cnc(Nc2ccc3c(c2)CCN(C2CNC2)C3)nc1NC1CC1")
"> 9.00"
>>> observed_result("N#CCN1CCc2cc(Nc3ncc(C(F)(F)F)c(NC4CC4)n3)ccc2C1")
"> 9.00"
>>> observed_result("NCCN1CCc2cc(Nc3ncc(C(F)(F)F)c(NC4CC4)n3)ccc2C1")
"> 9.00"
>>> observed_result("NCC(=O)Nc1cnc(Nc2ccc3c(c2)CCNC3)nc1NC1CC1")
"< 8.00"
>>> observed_result("FC(F)(F)c1cnc(Nc2ccc3c(c2)CN(Cc2ccco2)CC3)nc1NC1CC1")
"8.00 to 9.00"
>>> observed_result("NCCN1CCc2ccc(Nc3ncc(C(F)(F)F)c(NC4CC4)n3)cc2C1")
"8.00 to 9.00"
>>> observed_result("COC(=O)CC(=O)N1CCc2ccc(Nc3ncc(C(F)(F)F)c(NC4CC4)n3)cc2C1")
"8.00 to 9.00"
>>> observed_result("Cn1cnc(CN2CCc3ccc(Nc4ncc(C(F)(F)F)c(NC5CC5)n4)cc3C2)c1")
"8.00 to 9.00"
>>> observed_result("COCCN1CCc2ccc(Nc3ncc(C(F)(F)F)c(NC4CC4)n3)cc2C1")
"> 9.00"
>>> observed_result("COCCN1CCc2cc(Nc3ncc(C(F)(F)F)c(NC4CC4)n3)ccc2C1")
"> 9.00"
>>> observed_result("O=C(CCO)N1CCc2cc(Nc3ncc(C(F)(F)F)c(NC4CC4)n3)ccc2C1")
"> 9.00"
>>> observed_result("CNC(=O)c1ccccc1Nc1nc(Nc2ccc3c(c2)CN(C(=O)[C@@H](N)CO)CC3)ncc1Br (racemic)")
"< 8.00"
>>> observed_result("CNC(=O)c1ccccc1Nc1nc(Nc2ccc3c(c2)CCN(CCOC)C3)ncc1C(F)(F)F")
"8.00 to 9.00"
>>> observed_result("FC(F)(F)c1cnc(Nc2ccc3c(c2)CCN(Cc2ccncn2)C3)nc1NC1CC1")
"> 9.00"
>>> observed_result("OCC(O)CN1CCc2cc(Nc3ncc(C(F)(F)F)c(NC4CC4)n3)ccc2C1 (stereo not shown)")
"< 8.00"
>>> observed_result("CNC(=O)c1ccccc1Nc1nc(Nc2ccc3c(c2)CCN(Cc2ccc(OC)cc2)C3)ncc1Br")
"< 8.00"
>>> observed_result("N[C@@H](CO)C(=O)N1CCc2cc(Nc3ncc(C(F)(F)F)c(NC4CC4)n3)ccc2C1 (stereo in doubt)")
"8.00 to 9.00"
>>> observed_result("FC(F)(F)c1cnc(Nc2ccc3c(c2)CN(C2CNC2)CC3)nc1NC1CC1")
"> 9.00"
>>> observed_result("CC(=O)N1CCc2cc(Nc3ncc(C(F)(F)F)c(NC4CC4)n3)ccc2C1")
"> 9.00"
>>> observed_result("CCN(CC)C(=O)N1CCc2cc(Nc3ncc(C(F)(F)F)c(NC4CC4)n3)ccc2C1")
"8.00 to 9.00"
